biological target: 6×HIS-tankyrase1 (1091-1325) (Homo sapiens (Human)); assay: Tankyrase 1 biochemical assay (AlphaLisa, PARsylation); conditions: 400 nM NAD, 60 minutes at RT; read-out: TNKS1 IC50
Sequence (O95271 1091-1325): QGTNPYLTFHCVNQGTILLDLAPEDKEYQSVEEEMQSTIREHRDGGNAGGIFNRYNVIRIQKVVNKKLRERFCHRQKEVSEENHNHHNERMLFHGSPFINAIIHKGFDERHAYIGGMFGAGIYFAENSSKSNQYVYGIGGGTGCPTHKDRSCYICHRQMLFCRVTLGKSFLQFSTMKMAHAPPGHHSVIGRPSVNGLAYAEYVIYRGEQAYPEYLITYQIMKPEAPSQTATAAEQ
Entries and their IC50
Answer with a number only, understood to be in nM.

These recorded examples may help you get a feel for the data.
compound: O=C(CCCc1nc2ccccc2c(=O)[nH]1)N1CCC(c2n[nH]c3ccccc23)CC1 [Example 48, trifluoroacetic acid]
unit label: nM
IC50: 5.15

compound: O=C(CCSc1nc2ccccc2c(=O)[nH]1)N[C@H]1CC[C@H](c2nnc(-c3ccc(F)c(Cl)c3)o2)CC1 [Example 122]
unit label: nM
IC50: 0.153

compound: O=C(CCCc1nc2ccccc2c(=O)[nH]1)N[C@H]1CC[C@H](c2nnc(-c3ccc(Cl)cc3)o2)CC1 [Example 29]
unit label: nM
IC50: 0.549

compound: O=C(CCCc1nc2ccccc2c(=O)[nH]1)N1CCC(c2nnc(-c3cnccn3)o2)CC1 [Example 14]
unit label: nM
IC50: 79.7

compound: O=C(CCCc1nc2ccccc2c(=O)[nH]1)N[C@H]1CC[C@H](OCc2ccccc2)C1 (stereo in doubt) [Example 62]
unit label: nM
IC50: 587

Record for O=C(CCSc1nc2ccccc2c(=O)[nH]1)N[C@H]1CC[C@H](n2c(=O)[nH]c3cc(Cl)ccc32)CC1 [Example 90] under target or system 6×HIS-tankyrase1 (1091-1325) (Homo sapiens (Human)): IC50 reported as 0.127

Record for Cn1c(=O)n(C2CCN(C(=O)CCCc3nc4ccccc4c(=O)[nH]3)CC2)c2ccccc21 [Example 54] under target or system 6×HIS-tankyrase1 (1091-1325) (Homo sapiens (Human)): IC50 reported as 39.1
